We begin with a simple list: items and their reported z-score.
ASSAY NAME: S. cerevisiae RM11-1a growth modifiers, primary screen, strain RM11-1a, OD600, basal, 24 h (AID 1177);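 further: cultures grown under basal conditions with no added stressor; test concentration not given here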
STATED CONDITIONS: OD600, 24 h, higher = more signal, called active from +8 up or from −8 down
Calls of active or inactive are those of the source.

Q) Which z-score is listed for C[C@@]12COC[C@]13C=C(Br)[C@H](C2)[C@@]1(CO1)C3=O ?
A) -0.187 (inactive)

Q) Same for C=C(COC)/C(=C/C[C@@H](OC(=O)c1ccncc1)c1ccccc1OCCO)c1cc(C(=O)OC)ccc1OC
A) 0.0248 (inactive)

Q) Same for CCCCC(=C=CC[C@H](O)c1ccc(OCCO)cc1)C[C@H](O)c1cc(Cl)cc(Cl)c1O
A) -0.674 (inactive)

---
Q) Which z-score is listed for O=C1OCC=C[C@H]2OC34C=CCN(c5ccc6ccccc6c5)C(=O)[C@H]3N(CCCCCO)C(=O)[C@@H]4[C@@H]12 (some centres undefined) ?
A) 0.176 (inactive)
